Biological target: human DPP-IV (Homo sapiens, UniProt P27487)
Sequence (P27487 31-766): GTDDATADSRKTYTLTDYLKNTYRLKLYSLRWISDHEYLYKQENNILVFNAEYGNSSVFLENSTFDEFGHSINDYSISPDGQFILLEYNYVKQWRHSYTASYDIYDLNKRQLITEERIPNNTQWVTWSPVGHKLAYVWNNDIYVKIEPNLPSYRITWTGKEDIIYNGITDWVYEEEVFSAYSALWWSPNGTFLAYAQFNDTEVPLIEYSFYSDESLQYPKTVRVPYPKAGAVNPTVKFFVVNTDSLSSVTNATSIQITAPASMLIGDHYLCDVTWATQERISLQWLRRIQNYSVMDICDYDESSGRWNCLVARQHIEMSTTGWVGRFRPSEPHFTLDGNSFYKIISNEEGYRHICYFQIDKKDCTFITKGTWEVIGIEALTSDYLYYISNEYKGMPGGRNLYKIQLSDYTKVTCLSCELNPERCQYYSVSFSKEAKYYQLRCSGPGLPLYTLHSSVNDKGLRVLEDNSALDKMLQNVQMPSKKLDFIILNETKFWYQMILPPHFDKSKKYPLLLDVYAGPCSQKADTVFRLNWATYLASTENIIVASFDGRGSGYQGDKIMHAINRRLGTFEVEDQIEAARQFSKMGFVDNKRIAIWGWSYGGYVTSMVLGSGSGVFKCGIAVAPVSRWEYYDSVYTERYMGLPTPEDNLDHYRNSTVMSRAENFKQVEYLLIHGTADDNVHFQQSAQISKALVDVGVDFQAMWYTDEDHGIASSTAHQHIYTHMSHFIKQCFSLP
Test: DPP-IV activity assay (colorimetric / fluorometric), IC50 determination
Conditions: natural human DPP-IV from human plasma pool or recombinant human DPP-IV; 37° C., pH 7.8
Method: The following tests were carried out in order to determine the activity of the compounds of formula I. Activity of DPP-IV inhibitors are tested with natural human DPP-IV derived from a human plasma pool or with recombinant human DPP-IV. […] Fluorescence is detected in a Perkin Elmer Luminescence Spectrometer LS 50B at an excitation wavelength of 400 nm and an emission wavelength of 505 nm continuously every 15 seconds for 10 to 30 minutes. […]
IC50 for assorted molecules
measured.property: IC50 (nM)

- compound.string: "NCc1c(N)nc2ccc(Cl)cc2c1-c1ccccc1Cl"
  measured.property: "IC50"
  observed.result: 1590
- compound.string: "NCc1c(N)nc2c(c1-c1ccc(Cl)cc1Cl)COc1ccccc1-2"
  measured.property: "IC50"
  observed.result: 18
- compound.string: "Cc1ccc(-c2c(CN)c(N)nc3ccccc23)cc1"
  measured.property: "IC50"
  observed.result: 1910
- compound.string: "NCc1c(N)nc2c(c1-c1ccc(Cl)cc1Cl)CCc1ccccc1-2"
  measured.property: "IC50"
  observed.result: 45
- compound.string: "NCc1c(N)nc2c(c1-c1ccc(Cl)cc1Cl)CCc1sccc1-2"
  measured.property: "IC50"
  observed.result: 80
- compound.string: "COc1cc2c(cc1OC)-c1nc(N)c(CN)c(-c3ccc(Cl)cc3Cl)c1C2"
  measured.property: "IC50"
  observed.result: 2.7
- compound.string: "NCc1c(N)nc2ccccc2c1-c1ccccc1Cl"
  measured.property: "IC50"
  observed.result: 366
